Test system: NCI-H460 lung
Experiment: NCI-60 one-dose screen, 48 h
Details: 10 µM unless noted
The panel holds about 83,000 compounds, 20% with a hit somewhere; the sample as a whole holds those more often. Activity calls are given as the source filed them. The calls were made as follows: active = growth percent below 10; inactive = the rest.
Your answer must be one of the following: active, inactive

Would you please look over these solved cases?
[[record]]
molecule = "NC(=O)c1cccc(-c2ccc(S(=O)(=O)Nc3ccc4c(c3)N(C(=O)C3CC3)CCC4)cc2)c1"
class = "inactive"

[[record]]
molecule = "C=C(C)[C@@H]1CC[C@]2(C(=O)OC)CC[C@]3(C)[C@H](CC[C@@H]4[C@@]5(C)CC/C(=N\\OCCC(=NCCC#N)NOCCC#N)C(C)(C)[C@@H]5CC[C@]43C)[C@@H]12"
class = "active"

[[record]]
molecule = "O=C1NC(=O)C(Cc2ccc(OCc3ccc(-c4cc(F)c(F)c(F)c4)cc3)cc2)S1 (stereo not drawn)"
class = "inactive"

[[record]]
molecule = "Nc1cccc2c1C(=O)c1cccc(NC(=O)c3ccccc3)c1C2=O"
class = "active"

[[record]]
molecule = "Cn1c(=O)c(C#N)c(-c2ccco2)n2c(S(=O)(=O)Cc3ccccc3)nnc12"
class = "inactive"


Q) Test call for this molecule, please: CN(C)c1ccc(N=Nc2ccc3ccccc3c2)cc1
A) inactive

Q) Test call for this molecule, please: Cc1cccc(C[C@H](NC(=O)Nc2ccc(C)cc2F)C(=O)N[C@@H]2C(=O)N3C[C@H](O)C[C@H]3C(=O)N3CCN(C)C[C@H]3C(=O)N[C@@H](C)C(=O)N3C[C@H](C)C[C@H]3C(=O)O[C@H]2C)c1
A) inactive

Q) Test call for this molecule, please: CCN(CC)CCCC(C)Nc1c2ccc(C)cc2nc2ccc(OC)cc12 (stereo not drawn)
A) active

Q) Test call for this molecule, please: O=C1COCCN1c1ccc(Nc2nc(Cl)nc(N3CCOCC3)n2)cc1
A) inactive

----------
Tested on: CAKI-1 renal
Test: NCI-60 one-dose screen, 48 h
Conditions: 10 µM unless noted
This is part of a sample that, as a whole, favours compounds with a hit. Of some 83,000 tested, about 20% had one in any assay. Calls of active or inactive are those of the source. The calls were made as follows: active = growth percent below 10; inactive = the rest.
Your answer must be one of the following: YES = active, NO = inactive

Would you please look over these solved cases?
[[record]]
compound = "C=C(CN=[N+]=[N-])[C@@H]1CC[C@]2(C)[C@H](CC[C@@H]3[C@H]4[C@H]5OC(=O)[C@@]4(CCC5(C)C)CC[C@]32C)[C@@]1(C)CCC#N"
study_target = "CAKI-1 renal"
class = "NO"

[[record]]
compound = "O=c1cc(-c2ccccc2)oc2cc(OCc3cn(Cc4ccc(F)cc4)nn3)cc(O)c12"
study_target = "CAKI-1 renal"
class = "NO"

[[record]]
compound = "N#CC1C(=O)NC(c2ccccc2[N+](=O)[O-])c2sc3c(F)cccc3c21 (centres undefined)"
study_target = "CAKI-1 renal"
class = "YES"


Now for a further compound.
Q) Test call for this compound, please: Cc1ccc(C2=C/C(=C/c3ccc(Br)cc3)C(=O)N2CCc2ccc(S(N)(=O)=O)cc2)cc1
A) NO

----------
Test system: KM12 colon
Experiment: NCI-60 one-dose screen, 48 h
Conditions: 10 µM unless noted
Compounds without any hit were thinned out: in the full panel of roughly 83,000, 20% have a hit. Active and inactive are the calls of the source. Rule for the calls: active = growth percent below 10; inactive = the rest.
Your answer must be one of the following: active, inactive

Would you please look over these solved cases?
[[record]]
molecule = "CCN(CC)CCCOc1ccc2c(c1)O/C(=C\\c1cccc(OC)c1)C2=O"
class = "inactive"

[[record]]
molecule = "O=c1[nH]c(CN2CCN(c3cccc(Cl)c3)CC2)nc2cc(Cl)ccc12"
class = "inactive"

[[record]]
molecule = "COc1ccc(C2NC(=O)C(C#N)c3c2sc2c(F)cccc32)cc1 (stereo unspecified)"
class = "inactive"

[[record]]
molecule = "Nc1cc(C(=O)O)[nH]c(=S)n1"
class = "inactive"

[[record]]
molecule = "COc1ccc2nc3ccccc3c(NCCNCCO)c2c1"
class = "active"


Now for a further molecule.
Q) Test call for this molecule, please: O=C1NC(=O)c2cc([N+](=O)[O-])cc3cccc1c23
A) inactive

----------
Test system: RPMI-8226 leukemia
Test: NCI-60 one-dose screen, 48 h
Conditions: 10 µM unless noted
The panel holds about 83,000 compounds, 20% with a hit somewhere; the sample as a whole holds those more often. The source made the active and inactive calls. Rule for the calls: active = growth percent below 10; inactive = the rest.
Your answer must be one of the following: Yes (active), No (inactive)

Q) Test call for this molecule, please: Cc1ccccc1-n1nnc(C(=O)Nc2nc3ccc(F)cc3s2)c1C
A) No

Q) Test call for this molecule, please: CCCCCCCCCCCCCCNC(=O)Nc1ccc(Cl)c(Cl)c1
A) No

Q) Test call for this molecule, please: CCOC(=O)COc1ccc2c(c1)O/C(=C\c1ccc(O)cc1)C2=O
A) No

Q) Test call for this molecule, please: CC1Cc2c(Cl)ncnc2N(C)c2ccccc21 (centres undefined)
A) No

Q) Test call for this molecule, please: Oc1ccc(N=Nc2nccs2)c(O)c1
A) No

Q) Test call for this molecule, please: CN(C)CCCNc1nc(-c2cccc(C(Cl)(Cl)Cl)c2)nc(C(Cl)(Cl)Cl)n1
A) No

----------
System: MOLT-4 leukemia
Experiment: NCI-60 one-dose screen, 48 h (100 = growth as untreated, 0 = no growth, -100 = all killed)
Conditions: 10 µM unless noted
This is part of a sample that, as a whole, favours compounds with a hit. Of some 83,000 tested, about 20% had one in any assay.
Measured Endpoint: growth (%)
Give just the numeric value; % need not be written.

The cases that follow already have their growth on record.
[[record]]
compound = "Cn1c(=O)c(C#N)c(-c2ccco2)n2c(S(=O)(=O)Cc3ccccc3)nnc12"
study_target = "MOLT-4 leukemia"
measured_endpoint = "growth"
result_value = 102

[[record]]
compound = "O=c1[nH]c2cc(Cl)c(Cl)cc2n2cc3ncccc3c12"
study_target = "MOLT-4 leukemia"
measured_endpoint = "growth"
result_value = 58.8

[[record]]
compound = "COc1ccc(/C=C/C(=C/c2c(O)[nH]c3cc(Br)ccc23)N=O)cc1"
study_target = "MOLT-4 leukemia"
measured_endpoint = "growth"
result_value = 104

[[record]]
compound = "COc1ccc(C2NC(=O)C(C#N)c3c2sc2c(F)cccc32)cc1 (stereo unspecified)"
study_target = "MOLT-4 leukemia"
measured_endpoint = "growth"
result_value = 49.1

[[record]]
compound = "Cc1cccc(C[C@H](NC(=O)Nc2ccc(C)cc2F)C(=O)N[C@@H]2C(=O)N3C[C@H](O)C[C@H]3C(=O)N3CCN(C)C[C@H]3C(=O)N[C@@H](C)C(=O)N3C[C@H](C)C[C@H]3C(=O)O[C@H]2C)c1"
study_target = "MOLT-4 leukemia"
measured_endpoint = "growth"
result_value = 40.4


# compound CS(=O)(=O)c1cccnn1 ; its growth = 132

----------
Test system: SF-295 CNS
Test: NCI-60 one-dose screen, 48 h
Settings: 10 µM unless noted
Compounds without any hit were thinned out: in the full panel of roughly 83,000, 20% have a hit. Activity calls are given as the source filed them. Rule for the calls: active = growth percent below 10; inactive = the rest.
Your answer must be one of the following: class 1 (active), class 0 (inactive)

Would you please look over these solved cases?
[[record]]
compound = "Nc1cccc2c1C(=O)c1cccc(NC(=O)c3ccccc3)c1C2=O"
class = "class 1"

[[record]]
compound = "O=C(Nc1cccnc1)c1ccc2ccc3ccc(C(=O)Nc4cccnc4)nc3c2n1"
class = "class 1"

[[record]]
compound = "CCOc1ccccc1/C=N\\Nc1ccc(S(=O)(=O)c2ccc(N/N=C/c3ccccc3OCC)cc2)cc1"
class = "class 0"

[[record]]
compound = "CCOC(=O)/C(C#N)=C(\\C)CCc1ccccc1"
class = "class 0"

[[record]]
compound = "CCCCN(CC)CC(CC)Nc1cc(OC)cc2cccnc12 (stereo not drawn)"
class = "class 0"


Q) Test call for this compound, please: CCN(CC)c1ccc2cc(C(Nc3ccc(Br)c(C(F)(F)F)c3)c3nnnn3C(C)(C)C)c(=O)oc2c1 (stereo not drawn)
A) class 0

Q) Test call for this compound, please: CCOC(=O)c1sc2nc(-c3cc(OC)c(OC)c(OC)c3)nc(N3CCOCC3)c2c1C
A) class 0

Q) Test call for this compound, please: NC1=NC(=O)NC1(c1ccccc1)c1ccccc1
A) class 0

Q) Test call for this compound, please: CNC(=O)c1cc(Oc2cccc3nc(NC(=O)Nc4cc(C(F)(F)F)cc(C(F)(F)F)c4)ccc23)ccn1
A) class 0

Q) Test call for this compound, please: O=c1cc(-c2ccccc2)oc2c(O)c(O)ccc12
A) class 0

Q) Test call for this compound, please: CC(C)C1=NOC(=O)C1=Cc1cn(-c2ccccc2)nc1-c1cccc([N+](=O)[O-])c1
A) class 0

Q) Test call for this compound, please: CC1(C)CC[C@]2(C(=O)O)CC[C@]3(C)[C@H](CC[C@@H]4[C@@]5(C)CCC(=O)C(C)(C)[C@@H]5CC[C@]43C)[C@H]2[C@H]1OC(=O)C(F)(F)F
A) class 1

Q) Test call for this compound, please: CCN(CC)c1ccc(/C=C/c2ccc3cc(C)ccc3[n+]2CC)cc1
A) class 1

Q) Test call for this compound, please: C[C@H]1[C@H](C)CC[C@]2(COC(=O)CCC(=O)O)CC[C@]3(C)C(=CC[C@@H]4[C@@]5(C)CCCNC(C)(C)[C@@H]5CC[C@]43C)[C@H]12
A) class 0

Q) Test call for this compound, please: Cc1ccccc1-n1nnc(C(=O)Nc2nc3ccc(F)cc3s2)c1C
A) class 0

Q) Test call for this compound, please: Cc1ccc(-c2cc(-c3ccc(C)cc3)nc(N3CCN(CCNc4ccnc5cc(Cl)ccc45)CC3)n2)cc1
A) class 0

Q) Test call for this compound, please: O=[N+]([O-])c1cccc(/C=C/c2ccc3ccccc3n2)c1
A) class 0

Q) Test call for this compound, please: CCOC(=O)C(c1ccccc1)N1C(=O)c2ccccc2C1=O (stereo not drawn)
A) class 0

From: PubChem BioAssay (NCI)
